Catalogue of growth readings, one per entry.
System: A549/ATCC NSCLC
EXPERIMENT_DESCRIPTION: NCI-60 one-dose screen, 48 h (100 = growth as untreated, 0 = no growth, -100 = all killed)
DETAILS: 10 µM
Compounds without any hit were thinned out: in the full panel of roughly 83,000, 20% have a hit.

{"MOLECULE": "COc1ccccc1[C@H]1C(C(=O)c2ccc(Cl)cc2)C2(N[C@@H]1c1ccccc1)C(=O)Nc1ccc(Cl)cc12 (stereo partly drawn)", "SYSTEM_TESTED": "A549/ATCC NSCLC", "UNITS_TEXT": "%", "growth": 15.8}
{"MOLECULE": "O=C(CSc1nnc(-c2c[nH]c3ccccc23)n1-c1ccccc1)Nc1ccc(C(=O)/C=C/c2cccc([N+](=O)[O-])c2)cc1", "SYSTEM_TESTED": "A549/ATCC NSCLC", "UNITS_TEXT": "%", "growth": 97.2}
{"MOLECULE": "CN1CCN(c2ccc(C(=O)/C=C/c3cc(C(F)(F)F)ccc3Cl)cc2)CC1", "SYSTEM_TESTED": "A549/ATCC NSCLC", "UNITS_TEXT": "%", "growth": -78.1}
{"MOLECULE": "O=c1c2ccccc2nc(COc2ccccc2)n1/N=C/c1ccc(N2CCOCC2)cc1", "SYSTEM_TESTED": "A549/ATCC NSCLC", "UNITS_TEXT": "%", "growth": 73.7}
{"MOLECULE": "CCCn1c(=O)c2[nH]c(-c3ccc(OCc4nc5ccc(C)cc5[nH]4)cc3)nc2n(CCC)c1=O", "SYSTEM_TESTED": "A549/ATCC NSCLC", "UNITS_TEXT": "%", "growth": 62.7}
{"MOLECULE": "CN1CCCN(Cc2ccc(C(=O)Nc3cccc(Nc4ccc5cc(O)ccc5n4)c3)cc2C(F)(F)F)CC1", "SYSTEM_TESTED": "A549/ATCC NSCLC", "UNITS_TEXT": "%", "growth": 64.7}
{"MOLECULE": "CC1(c2ccccc2)NC(=O)N(CC(=O)Nc2ccc(C(=O)/C=C/c3ccc(Cl)cc3)cc2)C1=O (stereo not drawn)", "SYSTEM_TESTED": "A549/ATCC NSCLC", "UNITS_TEXT": "%", "growth": 6.84}
{"MOLECULE": "CC[C@]12C=CCN3CC[C@@]4(c5cc(C#CCNc6ccc(C)c(Nc7nccc(-c8cccnc8)n7)c6)c(OC)cc5N(C)[C@H]4[C@@](O)(C(=O)OC)[C@@H]1OC(C)=O)C32 (stereo partly drawn)", "SYSTEM_TESTED": "A549/ATCC NSCLC", "UNITS_TEXT": "%", "growth": 36.8}
